Origin of the recorded values: the supplement of paper PMC4166925

System: SpTbr T-box DNA-binding domain (GST fusion);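 note: protein at 200 nM in PBS on universal double-stranded arrays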
Sequence: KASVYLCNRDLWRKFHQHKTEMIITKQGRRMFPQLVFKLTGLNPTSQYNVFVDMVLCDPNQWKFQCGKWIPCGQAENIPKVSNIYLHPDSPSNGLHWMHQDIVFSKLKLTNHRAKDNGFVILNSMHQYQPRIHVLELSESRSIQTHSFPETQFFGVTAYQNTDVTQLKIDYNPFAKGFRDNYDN
Assay: PBM E-score of 8-mer (E-score (dimensionless, -0.5 to 0.5)); higher = stronger binding preference
Details: the construct has about 5 more residues each side
Whole data set: some 33,000 sequences, median “E-score (dimensionless, -0.5 to 0.5)” near -0.046, cut for the highest 2% near 0.36. What follows is part of a selection rich in the highest values, with near analogues and random picks from the rest.
measured endpoint: PBM E-score of 8-mer
Enter a number only.

AACCTTAA; -0.218
GAGGCTCA; -0.129

Here is another sequence to look at.
Prompt: Form field - read-out: PBM E-score of 8-mer; system: SpTbr T-box DNA-binding domain (GST fusion); submitted item: `CTCTTCAC`;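 note: protein at 200 nM in PBS on universal double-stranded arrays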
Completion: 0.292

###

System: SpTbr T-box DNA-binding domain (GST fusion);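 note: protein at 200 nM in PBS on universal double-stranded arrays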
Sequence: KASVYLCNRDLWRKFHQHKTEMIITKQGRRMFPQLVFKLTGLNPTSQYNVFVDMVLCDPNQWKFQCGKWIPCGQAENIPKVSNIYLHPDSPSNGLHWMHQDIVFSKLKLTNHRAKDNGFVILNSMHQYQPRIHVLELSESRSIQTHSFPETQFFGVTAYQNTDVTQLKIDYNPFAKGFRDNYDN
Assay: PBM E-score of 8-mer (E-score (dimensionless, -0.5 to 0.5)); higher = stronger binding preference
Settings: target sequence: T-box / the construct has about 5 more residues each side
In all, about 33,000 sequences were measured (“E-score (dimensionless, -0.5 to 0.5)”: median about -0.046, highest 2% from about 0.36 on). This excerpt belongs to a sample that is enriched for the highest values.
So basically: PBM E-score of 8-mer at -0.2 or higher? That is Yes. Lower than -0.2? That is No.

Solved cases below.
TACCACGA; Yes
GCGAGAAA; Yes
ATGAGAAA; No

Prompt: Reported PBM E-score of 8-mer at or above -0.2? `AAACCTCT`
Completion: No

Prompt: Then this sequence: `AGACCTCT`
Completion: No

Prompt: Then this sequence: `GTGACAAA`
Completion: Yes

Prompt: Then this sequence: `ATGCGCTC`
Completion: Yes

Prompt: Then this sequence: `GCGAGAAC`
Completion: Yes

Prompt: Then this sequence: `GTGACACA`
Completion: Yes

Prompt: Then this sequence: `ATGAGAAC`
Completion: Yes

Prompt: Then this sequence: `ACACCTCC`
Completion: Yes

###

PBM E-score of 8-mer values, listed per item
System: SpTbr T-box DNA-binding domain (GST fusion);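 note: protein at 200 nM in PBS on universal double-stranded arrays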
Sequence: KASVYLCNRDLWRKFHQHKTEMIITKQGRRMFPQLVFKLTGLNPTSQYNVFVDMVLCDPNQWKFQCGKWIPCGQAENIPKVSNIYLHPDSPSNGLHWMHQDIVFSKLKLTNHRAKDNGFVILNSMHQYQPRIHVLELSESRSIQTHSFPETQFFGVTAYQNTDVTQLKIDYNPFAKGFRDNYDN
Experiment: PBM E-score of 8-mer (E-score (dimensionless, -0.5 to 0.5)); higher = stronger binding preference
Details: target sequence: T-box / the construct has about 5 more residues each side
The full ranking holds about 33,000 sequences; the median of “E-score (dimensionless, -0.5 to 0.5)” is about -0.046, and the highest 2% start at about 0.36. Only a selection was taken, and the highest values are over-represented in it overall.

# annotated cases, reported PBM E-score of 8-mer shown
CAAGTGTC; 0.351
ATCGTCAT; -0.00478
AAAGTGGC; 0.205
GGAGCTAA; -0.165
GTCGTCAC; 0.337

Prompt: Item `CTCGTCAA` has what recorded PBM E-score of 8-mer?
Completion: 0.201

Prompt: Then this sequence: `CACAAGTG`
Completion: 0.38

Prompt: Then this sequence: `GAAGTGTC`
Completion: 0.429

###

Tested on: SpTbr T-box DNA-binding domain (GST fusion);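 note: protein at 200 nM in PBS on universal double-stranded arrays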
Sequence: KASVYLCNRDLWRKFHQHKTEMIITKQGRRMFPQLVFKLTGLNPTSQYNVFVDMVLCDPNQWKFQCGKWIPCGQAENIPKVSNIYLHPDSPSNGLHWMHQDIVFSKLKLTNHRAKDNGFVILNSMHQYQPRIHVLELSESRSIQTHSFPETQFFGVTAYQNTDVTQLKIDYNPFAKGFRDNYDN
Assay: PBM E-score of 8-mer (E-score (dimensionless, -0.5 to 0.5)); higher = stronger binding preference
Details: target sequence: T-box / the construct has about 5 more residues each side
Over roughly 33,000 sequences, “E-score (dimensionless, -0.5 to 0.5)” has its median near -0.046; the highest 2% begin near 0.36. This is one part of a sample in which the highest values are shown more often than they occur.
So basically: PBM E-score of 8-mer at 0.1 or higher? That is T. Lower than 0.1? That is F.

Solved cases below.
CAAATGAG; F
CAAGGATA; F

Turning to the following sequence.
Prompt: Reported PBM E-score of 8-mer at or above 0.1? `ACACGTCT`
Completion: T

###

System: SpTbr T-box DNA-binding domain (GST fusion);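 note: protein at 200 nM in PBS on universal double-stranded arrays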
Sequence: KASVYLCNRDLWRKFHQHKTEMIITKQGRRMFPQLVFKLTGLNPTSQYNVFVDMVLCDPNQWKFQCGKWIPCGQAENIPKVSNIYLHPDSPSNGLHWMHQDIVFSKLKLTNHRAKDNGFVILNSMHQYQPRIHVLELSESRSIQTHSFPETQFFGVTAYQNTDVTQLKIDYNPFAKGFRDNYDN
Experiment: PBM E-score of 8-mer (E-score (dimensionless, -0.5 to 0.5)); higher = stronger binding preference
Settings: target sequence: T-box / the construct has about 5 more residues each side
The full ranking holds about 33,000 sequences; the median of “E-score (dimensionless, -0.5 to 0.5)” is about -0.046, and the highest 2% start at about 0.36. The sample holds the highest values, similar sequences and a random draw of the others, so the mix is not that of the screen.
Note that class boundaries on PBM E-score of 8-mer are interval 1 = under -0.02, interval 2 = from -0.02 up to 0.2, interval 3 = 0.2 and over

AGGCGAGC; interval 1

Prompt: Band assignment needed for `ATGGGAGC` please.
Completion: interval 1

Prompt: Then this sequence: `ACTAAGCC`
Completion: interval 1

Prompt: Then this sequence: `CTCCTCTC`
Completion: interval 2

Prompt: Then this sequence: `ACACCTTG`
Completion: interval 3

Prompt: Then this sequence: `AAGTGGTA`
Completion: interval 2

Prompt: Then this sequence: `AGCAACCA`
Completion: interval 1

Prompt: Then this sequence: `ACACTCCG`
Completion: interval 3

Prompt: Then this sequence: `CGACCTGC`
Completion: interval 2

Prompt: Then this sequence: `CCACCTTC`
Completion: interval 3

###

PBM E-score of 8-mer values, listed per item
System: SpTbr T-box DNA-binding domain (GST fusion);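 note: protein at 200 nM in PBS on universal double-stranded arrays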
Sequence: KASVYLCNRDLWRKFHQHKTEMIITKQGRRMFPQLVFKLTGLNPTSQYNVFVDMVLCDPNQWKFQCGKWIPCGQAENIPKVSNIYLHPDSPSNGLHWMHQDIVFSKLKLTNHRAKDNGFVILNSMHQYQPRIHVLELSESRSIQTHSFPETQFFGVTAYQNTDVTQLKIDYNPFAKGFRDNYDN
Assay: PBM E-score of 8-mer (E-score (dimensionless, -0.5 to 0.5)); higher = stronger binding preference
Details: target sequence: T-box / the construct has about 5 more residues each side
The full ranking holds about 33,000 sequences; the median of “E-score (dimensionless, -0.5 to 0.5)” is about -0.046, and the highest 2% start at about 0.36. The entries come from a sample that favours the highest values as a whole.
Enter a number only.

# annotated cases, reported PBM E-score of 8-mer shown
AATGCTGT; -0.0262
CACTTGTC; 0.375

Prompt: Item `AGTGTTTG` has what recorded PBM E-score of 8-mer?
Completion: 0.219

Prompt: Then this sequence: `ATAATCTC`
Completion: -0.0752

Prompt: Then this sequence: `AGGGACTA`
Completion: -0.137

Prompt: Then this sequence: `AAACTATG`
Completion: -0.131

Prompt: Then this sequence: `ACACCCCA`
Completion: 0.376

Prompt: Then this sequence: `AAAGTGAC`
Completion: 0.367

Prompt: Then this sequence: `GAACTTCA`
Completion: -0.0825

###

PBM E-score of 8-mer values, listed per item
Test system: SpTbr T-box DNA-binding domain (GST fusion);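 note: protein at 200 nM in PBS on universal double-stranded arrays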
Sequence: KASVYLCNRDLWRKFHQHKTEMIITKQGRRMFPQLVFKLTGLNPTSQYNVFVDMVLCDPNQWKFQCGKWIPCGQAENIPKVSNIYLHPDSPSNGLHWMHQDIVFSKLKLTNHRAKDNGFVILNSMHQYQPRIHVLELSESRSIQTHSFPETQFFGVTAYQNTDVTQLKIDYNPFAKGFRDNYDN
Test: PBM E-score of 8-mer (E-score (dimensionless, -0.5 to 0.5)); Tbr is Tbrain of the sea star Patiria miniata (Pm) or the sea urchin Strongylocentrotus purpuratus (Sp); higher = stronger binding preference
Settings: target sequence: T-box / the construct has about 5 more residues each side
The full ranking holds about 33,000 sequences; the median of “E-score (dimensionless, -0.5 to 0.5)” is about -0.046, and the highest 2% start at about 0.36. The sample holds the highest values, similar sequences and a random draw of the others, so the mix is not that of the screen.
Enter a number only.

ATCGTACC; -0.157
ACGCGCCG; 0.227
CAACCTGA; -0.0529

Prompt: Item `AGACGTAC` has what recorded PBM E-score of 8-mer?
Completion: -0.0414

Prompt: Then this sequence: `GACACATA`
Completion: 0.359

Prompt: Then this sequence: `GGTACTCA`
Completion: -0.0116

Prompt: Then this sequence: `CGGAGCCA`
Completion: -0.164

Prompt: Then this sequence: `ACGCGAGT`
Completion: 0.107

Prompt: Then this sequence: `CGATACCC`
Completion: -0.00698

Prompt: Then this sequence: `CAACCCAG`
Completion: -0.207

Prompt: Then this sequence: `CACACATG`
Completion: 0.383
